target: T1, human somatostatin receptor protein subtype 5 (SSTR5) (human, UniProt P35346 1-364); assay: displacement of 200 pM [125I]-somatostatin from membrane fraction of CHO cells expressing the human receptor; filter binding, Hill plot
T1 construct: whole, on cells; also called cell line SSTR5-32-4
T1 sequence (P35346 whole entry): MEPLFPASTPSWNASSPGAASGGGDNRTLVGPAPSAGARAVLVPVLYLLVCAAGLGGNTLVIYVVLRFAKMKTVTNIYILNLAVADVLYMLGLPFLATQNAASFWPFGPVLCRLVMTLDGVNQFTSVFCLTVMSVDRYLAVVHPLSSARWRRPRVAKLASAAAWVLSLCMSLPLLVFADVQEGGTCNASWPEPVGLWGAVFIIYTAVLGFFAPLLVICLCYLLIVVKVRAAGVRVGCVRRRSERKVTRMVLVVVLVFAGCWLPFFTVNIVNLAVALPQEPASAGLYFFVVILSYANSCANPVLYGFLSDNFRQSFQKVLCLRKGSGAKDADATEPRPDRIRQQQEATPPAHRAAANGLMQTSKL
Bridges are numbered along the chain shown (N, C = ends). Where no end group is shown, it is not given here.
test readout: pIC50
The scale used: pIC50 is minus the common logarithm of the concentration in molar units.

Incoming: For DRMPCRNFFWKTFSSCK (disulfide 5-16) [human peptide hCS-17] , what is its reported pIC50?
Outgoing: 9.40
